Target: human VPS34 (Homo sapiens (Human), UniProt Q8NEB9)
Sequence (Q8NEB9 whole entry): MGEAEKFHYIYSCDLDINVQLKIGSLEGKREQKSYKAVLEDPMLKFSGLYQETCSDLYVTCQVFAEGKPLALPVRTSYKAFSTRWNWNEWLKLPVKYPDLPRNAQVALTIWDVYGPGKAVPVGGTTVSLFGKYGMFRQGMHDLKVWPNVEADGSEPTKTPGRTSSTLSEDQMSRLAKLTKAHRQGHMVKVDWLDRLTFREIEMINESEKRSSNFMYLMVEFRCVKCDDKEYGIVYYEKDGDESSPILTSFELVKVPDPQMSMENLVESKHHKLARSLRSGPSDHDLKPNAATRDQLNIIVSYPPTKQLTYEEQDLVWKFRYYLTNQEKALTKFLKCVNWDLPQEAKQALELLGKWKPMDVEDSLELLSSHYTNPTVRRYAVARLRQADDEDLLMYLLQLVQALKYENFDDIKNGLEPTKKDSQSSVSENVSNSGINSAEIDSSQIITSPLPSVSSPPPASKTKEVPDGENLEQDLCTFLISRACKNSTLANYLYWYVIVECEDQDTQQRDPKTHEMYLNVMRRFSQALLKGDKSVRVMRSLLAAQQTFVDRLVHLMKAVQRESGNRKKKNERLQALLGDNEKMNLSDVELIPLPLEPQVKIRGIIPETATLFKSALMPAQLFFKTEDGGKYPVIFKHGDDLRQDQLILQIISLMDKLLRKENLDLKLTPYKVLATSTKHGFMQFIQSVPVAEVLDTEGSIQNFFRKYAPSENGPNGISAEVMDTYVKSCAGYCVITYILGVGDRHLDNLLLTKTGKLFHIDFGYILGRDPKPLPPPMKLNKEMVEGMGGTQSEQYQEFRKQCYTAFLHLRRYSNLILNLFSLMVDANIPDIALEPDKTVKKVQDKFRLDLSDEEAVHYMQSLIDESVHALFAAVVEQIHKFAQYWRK
Assay: Human VPS34 enzyme assay (Adapta TR-FRET ADP detection)
Assay type: biochemical
Conditions: IC50 range class
parameter-measured: IC50

{"molecule": "N=C(N)NC(=O)c1cc(-c2ccnc(Nc3ccncn3)c2)cnc1N", "target-entity": "human VPS34 (Homo sapiens (Human), UniProt Q8NEB9)", "observed-measurement": "0.05 to 0.1 µM"}

Query block: Param item = Cc1nccc(Nc2cc(-c3cncc(C(C)OCc4ccccn4)c3)ccn2)n1 (stereo not shown) ; retrieve measured IC50.
Result block: 0.01 to 0.05 µM

Query block: Param item = `CC(=O)Nc1cc(-c2cnc(N)c(S(=O)(=O)Nc3cccc(Cl)c3)c2)ccn1` ; retrieve measured IC50.
Result block: < 0.01 µM

Query block: Param item = `COc1ncc(-c2ccnc(NC(C)=O)c2)cc1S(=O)(=O)Nc1cccc(C(F)(F)F)c1` ; retrieve measured IC50.
Result block: 0.01 to 0.05 µM

###

Molecular target: human VPS34 (Homo sapiens (Human))
Experiment: Human VPS34 enzyme assay (Adapta TR-FRET ADP detection)
Type: biochemical
Settings: IC50 range class
parameter-measured: IC50

{"compound": "CC(=O)Nc1cc(-c2cnc(C)c(C(=O)N(C)c3ccc(F)cc3F)c2)ccn1", "IC50": "10 to 50 nM"}
{"compound": "COc1ncc(-c2ccnc(NC(C)=O)c2)cc1NS(=O)(=O)c1ccc(F)cc1F", "IC50": "< 10 nM"}
{"compound": "CC(=O)Nc1cc(-c2cnc(C#N)c(N3CCCCC3C)c2)ccn1 (centres unmarked)", "IC50": "> 100 nM"}

Query block: Param item = `Cc1ncc(-c2ccnc(Nc3ccncn3)c2)cc1NS(=O)(=O)N(C)C` ; retrieve measured IC50.
Result block: < 10 nM

Query block: Param item = `CC(=O)Nc1cc(-c2cnc(N)c(S(=O)(=O)Cc3ccc(F)cc3F)c2)ccn1` ; retrieve measured IC50.
Result block: 10 to 50 nM

Query block: Param item = `CC(=O)Nc1cc(-c2cnc(Cl)c(NS(=O)(=O)c3ccc(C#N)cc3)c2C)ccn1` ; retrieve measured IC50.
Result block: 10 to 50 nM

Query block: Param item = `CC(=O)Nc1cc(-c2cncc(N3CCCN(C)S3(=O)=O)c2)ccn1` ; retrieve measured IC50.
Result block: 10 to 50 nM

Query block: Param item = `CC(=O)Nc1cc(-c2cncc(S(=O)(=O)N(C)c3ccccc3)c2)ccn1` ; retrieve measured IC50.
Result block: 10 to 50 nM

Query block: Param item = `COc1cc(C)ccc1S(=O)(=O)Nc1cc(-c2ccnc(NC(C)=O)c2)cnc1C` ; retrieve measured IC50.
Result block: < 10 nM

Query block: Param item = `Cc1ncc(-c2ccnc(NC(=O)C3CC3)c2)cc1NS(=O)(=O)N(C)C` ; retrieve measured IC50.
Result block: < 10 nM

Query block: Param item = Cc1ncc(-c2ccnc(NC(=O)C3CC3(F)F)c2)cc1NS(=O)(=O)N(C)C (centres unmarked) [Compound I-244] ; retrieve measured IC50.
Result block: 10 to 50 nM

Query block: Param item = `CC(=O)Nc1cc(-c2cnc(N)c(C(=O)N3CCC(C)CC3)c2)ccn1` ; retrieve measured IC50.
Result block: < 10 nM

Query block: Param item = `CCN(C)S(=O)(=O)Nc1cc(-c2ccnc(NC(C)=O)c2)cnc1C` ; retrieve measured IC50.
Result block: < 10 nM

###

Molecular target: human VPS34 (Homo sapiens (Human))
Experiment: Human VPS34 enzyme assay (Adapta TR-FRET ADP detection)
Assay type: biochemical
Conditions: IC50 range class
pIC50: −log10 of the molar value.
Reported values of pIC50 for individual entries

// worked examples, pIC50 included
{"molecule": "Cc1ncc(-c2ccnc(Nc3ccnc(C(F)(F)F)n3)c2)cc1NS(=O)(=O)c1ccc(F)cc1F", "observed-measurement": "7.30 to 8.00"}
{"molecule": "CC(=O)Nc1cc(-c2cnc(Cl)c(NS(=O)(=O)c3ccc(F)cc3F)c2C)ccn1", "observed-measurement": "> 8.00"}
{"molecule": "Cc1ncc(-c2ccnc(Nc3ccncn3)c2)cc1NS(=O)(=O)c1ccc(F)cc1F", "observed-measurement": "> 8.00"}
{"molecule": "COc1nccc(Nc2cc(-c3cnc(Cl)c(NS(=O)(=O)c4ccc(F)cc4F)c3C)ccn2)n1", "observed-measurement": "> 8.00"}
{"molecule": "COC(=O)Nc1cc(-c2cnc(C)c(NS(=O)(=O)N(C)C)c2)ccn1", "observed-measurement": "7.30 to 8.00"}
{"molecule": "Cc1ncc(-c2ccnc(NC(=O)C3CCC3)c2)cc1NS(=O)(=O)c1ccc(F)cc1F", "observed-measurement": "7.30 to 8.00"}
{"molecule": "CC(=O)Nc1cc(-c2cnc(Cl)c(NS(=O)(=O)c3cc(Cl)ccc3Cl)c2C)ccn1", "observed-measurement": "> 8.00"}
{"molecule": "CC(=O)Nc1cc(-c2cncc(/C=C/C(=O)c3ccc(F)cc3)c2)ccn1", "observed-measurement": "7.00 to 7.30"}

Query block: Param item = `Cc1nccc(Nc2cc(-c3cnc(C)c(C(=O)N4CC5(COC5)C4)c3)ccn2)n1` ; retrieve measured pIC50.
Result block: 7.30 to 8.00

Query block: Param item = `COC(=O)Nc1cc(-c2cnc(Cl)c(NS(=O)(=O)c3ccc(F)cc3F)c2C)ccn1` ; retrieve measured pIC50.
Result block: > 8.00

Query block: Param item = `COC(=O)Nc1cc(-c2cnc(C)c(NS(=O)(=O)c3ccc(Cl)cc3F)c2)ccn1` ; retrieve measured pIC50.
Result block: > 8.00

Query block: Param item = `CC(=O)Nc1cc(-c2cnc(N)c(S(=O)(=O)CCc3ccccc3)c2)ccn1` ; retrieve measured pIC50.
Result block: 7.00 to 7.30

Query block: Param item = Cc1nccc(Nc2cc(-c3cncc(C(C)Oc4ccccc4F)c3)ccn2)n1 (stereo not shown) ; retrieve measured pIC50.
Result block: 7.30 to 8.00

Query block: Param item = `CC(=O)Nc1cc(-c2cnc(NCC3CC3)c(N)c2)ccn1` ; retrieve measured pIC50.
Result block: < 7.00

Query block: Param item = `Cc1nccc(Nc2cc(-c3cnc(Cl)c(C(=O)O)c3C)ccn2)n1` ; retrieve measured pIC50.
Result block: 7.30 to 8.00

Query block: Param item = `CC(=O)Nc1cc(-c2cnc(N)c(S(=O)(=O)N(C)Cc3ccccc3)c2)ccn1` ; retrieve measured pIC50.
Result block: > 8.00

###

Target: human VPS34 (Homo sapiens (Human))
Assay: Human VPS34 enzyme assay (Adapta TR-FRET ADP detection)
Format: biochemical
Settings: IC50 range class
parameter-measured: IC50

// worked examples, IC50 included
{"query-smiles": "CC(=O)Nc1cc(-c2cnc(Cl)c(NS(=O)(=O)c3ccccc3F)c2C)ccn1", "IC50": "10 to 50 nM"}
{"query-smiles": "CC(=O)Nc1cc(-c2cnc(N)c(N3CCCS3(=O)=O)c2)ccn1", "IC50": "< 10 nM"}
{"query-smiles": "CC(=O)Nc1cc(-c2cnc(C)c(NS(=O)(=O)N3CCC(C)(C)CC3)c2)ccn1", "IC50": "10 to 50 nM"}
{"query-smiles": "CC(=O)Nc1cc(-c2cnc(C)c(N3CCCS3(=O)=O)c2)ccn1", "IC50": "10 to 50 nM"}
{"query-smiles": "CC(=O)Nc1cc(-c2cncc(S(=O)(=O)N(C)C)c2)ccn1", "IC50": "10 to 50 nM"}

Query block: Param item = `CC(=O)Nc1cc(-c2cnc(C)c(NS(=O)(=O)N3CCN(C)CC3)c2)ccn1` ; retrieve measured IC50.
Result block: 10 to 50 nM

Query block: Param item = `CNc1ncc(-c2ccnc(NC(C)=O)c2)cc1N(CC1CC1)S(C)(=O)=O` ; retrieve measured IC50.
Result block: < 10 nM

Query block: Param item = `Cc1nccc(Nc2cc(-c3cnc(Cl)c(S(=O)(=O)NC4CCC4)c3)ccn2)n1` ; retrieve measured IC50.
Result block: 10 to 50 nM

###

Molecular target: human VPS34 (Homo sapiens (Human), UniProt Q8NEB9)
Experiment: Human VPS34 enzyme assay (Adapta TR-FRET ADP detection)
Type: biochemical
Settings: IC50 range class
pIC50: −log10 of the molar value.
parameter-measured: pIC50

{"compound": "CC(=O)Nc1cc(-c2cnc(N(C)C)c(C(=O)Nc3ccc(F)cc3F)c2)ccn1 [Compound I-112]", "target-entity": "human VPS34 (Homo sapiens (Human), UniProt Q8NEB9)", "observed-measurement": "7.00 to 7.30"}
{"compound": "CC(=O)Nc1cc(-c2cnc3ncn(CC4CC4)c3c2)ccn1 [Compound I-135]", "target-entity": "human VPS34 (Homo sapiens (Human), UniProt Q8NEB9)", "observed-measurement": "< 7.00"}
{"compound": "Cc1ccc(Oc2cc(-c3ccnc(Nc4ccnc(C)n4)c3)cnc2C)nc1 [Compound I-390]", "target-entity": "human VPS34 (Homo sapiens (Human), UniProt Q8NEB9)", "observed-measurement": "7.30 to 8.00"}
{"compound": "Cc1ncc(-c2ccnc(Nc3ccnc(C4CC4)n3)c2)cc1C(=O)N1CCC1 [Compound I-246]", "target-entity": "human VPS34 (Homo sapiens (Human), UniProt Q8NEB9)", "observed-measurement": "7.30 to 8.00"}
{"compound": "CC(=O)Nc1cc(-c2cnc(C)c(NS(=O)(=O)N3CCCCC3)c2)ccn1 [Compound I-214]", "target-entity": "human VPS34 (Homo sapiens (Human), UniProt Q8NEB9)", "observed-measurement": "> 8.00"}
{"compound": "Cc1c(-c2ccnc(Nc3ccnc(C4CC4)n3)c2)cnc(Cl)c1NS(=O)(=O)c1ccc(F)cc1F [Compound I-296]", "target-entity": "human VPS34 (Homo sapiens (Human), UniProt Q8NEB9)", "observed-measurement": "7.30 to 8.00"}

Query block: Param item = CC(=O)Nc1cc(-c2cnc(C)c(NS(=O)(=O)c3ccccc3Cl)c2)ccn1 [Compound I-109] ; retrieve measured pIC50.
Result block: > 8.00

Query block: Param item = CC(=O)Nc1cc(-c2cnc(C)c(NS(=O)(=O)c3ccc(C#N)cc3F)c2)ccn1 [Compound I-356] ; retrieve measured pIC50.
Result block: > 8.00

Origin of values: patent US9751854B2
